meta.source: patent US20240174662A1

Biological target: SIK2 (Homo sapiens (Human), UniProt Q9H0K1)
Sequence (Q9H0K1 whole entry, species assumed): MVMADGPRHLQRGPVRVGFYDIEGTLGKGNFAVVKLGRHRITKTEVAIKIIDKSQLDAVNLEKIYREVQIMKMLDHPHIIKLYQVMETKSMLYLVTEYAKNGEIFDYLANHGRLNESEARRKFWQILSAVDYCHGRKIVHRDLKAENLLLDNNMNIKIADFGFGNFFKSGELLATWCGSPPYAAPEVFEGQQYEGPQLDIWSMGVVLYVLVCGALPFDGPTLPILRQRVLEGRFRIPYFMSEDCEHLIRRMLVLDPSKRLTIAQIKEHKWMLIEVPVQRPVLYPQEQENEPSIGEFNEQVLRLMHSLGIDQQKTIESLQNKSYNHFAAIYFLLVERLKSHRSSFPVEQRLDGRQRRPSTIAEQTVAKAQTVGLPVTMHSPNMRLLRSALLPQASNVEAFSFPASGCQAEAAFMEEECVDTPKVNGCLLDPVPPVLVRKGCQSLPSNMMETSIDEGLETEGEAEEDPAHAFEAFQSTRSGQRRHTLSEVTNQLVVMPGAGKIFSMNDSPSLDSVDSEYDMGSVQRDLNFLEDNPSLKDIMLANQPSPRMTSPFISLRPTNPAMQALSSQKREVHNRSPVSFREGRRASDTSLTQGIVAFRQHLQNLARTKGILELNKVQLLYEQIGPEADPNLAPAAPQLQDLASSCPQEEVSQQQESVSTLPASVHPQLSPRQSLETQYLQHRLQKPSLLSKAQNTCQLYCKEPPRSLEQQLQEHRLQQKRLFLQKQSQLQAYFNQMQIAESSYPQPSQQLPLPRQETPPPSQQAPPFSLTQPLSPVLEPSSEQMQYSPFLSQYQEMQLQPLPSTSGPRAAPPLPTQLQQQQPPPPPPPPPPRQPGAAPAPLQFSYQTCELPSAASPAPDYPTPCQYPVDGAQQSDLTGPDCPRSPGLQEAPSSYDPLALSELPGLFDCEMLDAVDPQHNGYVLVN
Assay: SIK2 Enzymatic Assay Version 2 (High ATP)
Format: biochemical
Conditions: 3 mM ATP and 200 μM HDAC5tide final, ADP-Glo Max luminescence
Endpoint name: IC50 (nM)

1) COC1CNC[C@@H]1Oc1noc(C)c1-c1ccn2nc(NC(=O)C3CC3)cc2c1 (single isomer, unassigned) [Example 202]    12.3
2) Cc1cc(Nc2cc3cc(-c4c(O[C@H]5CCN(C)C5)cnn4C)ccn3n2)ncn1 [Example 265]    30.5
3) Cc1cncc(Nc2cc3cc(-c4c(OC[C@H]5CCN5CCF)cnn4C)ccn3n2)n1 [Example 278]    1

---

Each item that follows carries a reported IC50.
Molecular target: SIK2 (Homo sapiens (Human), UniProt Q9H0K1)
Experiment: SIK2 Enzymatic Assay Version 2 (High ATP)
Type: biochemical
Details: 3 mM ATP and 200 μM HDAC5tide final, ADP-Glo Max luminescence
Endpoint name: IC50 (nM)

1. CN1CC[C@@H]1COc1cnn(C)c1-c1ccn2nc(Nc3cnc(C(F)(F)F)cn3)cc2c1 [Example 150]    7.6
2. COc1cc(Nc2cc3cc(-c4c(OC[C@H]5CCN5C)cnn4C)ccn3n2)cc(OC)c1C(=O)NC(C)C [Example 37]    42.9
3. C[C@@H]1CNC[C@@H]1OCc1cnn(C)c1-c1ccn2nc(NC(=O)C3CC3)cc2c1 (single isomer, unassigned) [Example 196]    24.7
4. Cn1ncc(OC[C@@H]2CNC[C@H]2O)c1-c1ccn2nc(NC(=O)C3CC3)cc2c1 [Example 416]    73.6
5. CCN1CC2(CC2)[C@H]1COc1cnn(C)c1-c1ccn2nc(NC(=O)C3CC3)cc2c1 (single isomer, unassigned) [Example 67]    52.1
6. Cc1ccc(Nc2cc3cc(-c4c(OC[C@H]5CCN5)cnn4C)ccn3n2)nn1 [Example 392]    73
7. CCN1CC[C@@H]1COc1cnn(C(F)F)c1-c1ccn2nc(Nc3cc(C)c(=O)n(C)n3)cc2c1 [Example 484]    0.9
8. Cn1ncc(OC[C@H]2CCN2CC2COC2)c1-c1ccn2nc(NC(=O)C3CC3)cc2c1 [Example 433]    122
9. CN1CC(Oc2cnn(C)c2-c2ccn3nc(NC(=O)C4CC4)cc3c2)C1 [Example 399]    174
10. CN1CC[C@H](Oc2cnn(C)c2-c2ccn3nc(Nc4cnccn4)cc3c2)C1 [Example 450]    75.1
11. CN1CC[C@@H]1COc1cnn(C)c1-c1ccn2nc(Nc3ccc4nccn4n3)cc2c1 [Example 149]    2
12. CN1CC[C@@H]1COc1cnn(C)c1-c1ccn2nc(Nc3cn(C)nn3)cc2c1 [Example 124]    14.9
13. Cc1snc(O[C@H]2CCNC2)c1-c1ccn2nc(NC(=O)C3CC3)cc2c1 [Example 330]    35.2
14. CN1C[C@H]2C[C@H]2[C@@H]1COc1cnn(C)c1-c1ccn2nc(NC(=O)C3CC3)cc2c1 [Example 432]    76.8
15. CN1CC[C@H](Oc2cnn(C)c2-c2ccn3nc(Nc4ccc5c(n4)CCOC5)cc3c2)C1 [Example 280]    35.8
16. CO[C@H]1CNC[C@H]1Oc1noc(C)c1-c1ccn2nc(NC(=O)C3CC3)cc2c1 [Example 88]    11.5
17. Cn1ncc(OC[C@H]2CCCN2CCF)c1-c1ccn2nc(NC(=O)C3CC3)cc2c1 [Example 350]    66.2
18. Cn1ncc(COC2CNC2)c1-c1ccn2nc(NC(=O)C3CC3)cc2c1 [Example 360]    32.8
19. Cc1onc(OC[C@@H]2CCCCN2C)c1-c1ccn2nc(NC(=O)C3CC3)cc2c1 [Example 501]    355
20. CCC1(OCc2cnn(C)c2-c2ccn3nc(NC(=O)C4CC4)cc3c2)CNC1 [Example 193]    21.2
21. Cc1cnc(Nc2cc3cc(-c4c(CO[C@@H]5CN(C)C[C@H]5C)cnn4C)ccn3n2)cn1 (stereo in doubt) [Example 377]    14.8
22. Cc1cnc(Nc2cc3cc(-c4c(OC[C@H]5CCN5)cnn4C)ccn3n2)cn1 [Example 393]    98.4
23. CC(C)c1nccc(Nc2cc3cc(-c4c(O[C@H]5CCN(C)C5)cnn4C)ccn3n2)n1 [Example 270]    47.7
